The origin of these recorded values is ChEMBL document CHEMBL1140490.

- System: Staphylococcus aureus
- PROTOCOL_DESCRIPTION: Antimicrobial activity against Staphylococcus aureus ISP447 by serial dilution method
- Format: functional
Measured MIC of individual entries

Illustrative cases are given below, each with its answer.
C#CCO[C@H]1[C@H](C)[C@@H](O[C@@H]2O[C@H](C)C[C@H](N(C)C)[C@H]2O)[C@@]2(C)CC(C)=C(O2)[C@H](C)[C@@H](OC(=O)C(C)C)[C@](C)(OC(=O)C(C)C)[C@@H](CC)OC(=O)[C@@H]1C : 32 µg/mL
CC[C@H]1OC(=O)[C@H](C)[C@@H](O)[C@H](C)[C@@H](O[C@@H]2O[C@H](C)C[C@H](N(C)C)[C@H]2OC(C)=O)[C@@]2(C)CC(C)=C(O2)[C@H](C)[C@@H](OC(=O)C(C)C)[C@]1(C)OC(=O)C(C)C : 128 µg/mL
CC[C@H]1OC(=O)[C@H](C)[C@@H](OCc2cn(CC(=O)O)nn2)[C@H](C)[C@@H](O[C@@H]2O[C@H](C)C[C@H](N(C)C)[C@H]2O)[C@@]2(C)CC(C)=C(O2)[C@H](C)[C@@H](OC(=O)C(C)C)[C@]1(C)OC(=O)C(C)C : > 128 µg/mL

Next item in the queue.
Quick check: MIC on Staphylococcus aureus, item CC[C@H]1OC(=O)[C@H](C)[C@@H](O[C@H]2C[C@@](C)(OC)[C@@H](O)[C@H](C)O2)[C@H](C)[C@@H](O[C@@H]2O[C@H](C)C[C@H](N(C)C)[C@H]2O)[C@@]2(C)CC(C)=C(O2)[C@H](C)[C@@H](OC(=O)C(C)C)[C@]1(C)OC(=O)C(C)C ?
32 µg/mL

----------
A collection of compounds and their measured MIC
- Tested on: Enterococcus faecalis
- PROTOCOL_DESCRIPTION: Antimicrobial activity against vancomycin-resistant Enterococcus faecalis NCTC-12201 by serial dilution method
- Type: functional
Hi! Could you send only the number? It should be in µg/mL, unit omitted.

Request body: readout MIC, system Enterococcus faecalis, query CC[C@H]1OC(=O)[C@H](C)[C@@H](O)[C@H](C)[C@@H](O[C@@H]2O[C@H](C)C[C@H](N(C)C)[C@H]2OC(C)=O)[C@@]2(C)CC(C)=C(O2)[C@H](C)[C@@H](OC(=O)C(C)C)[C@]1(C)OC(=O)C(C)C . Return the value.
64

Short answer please: MIC, Enterococcus faecalis, entry CC[C@H]1OC(=O)[C@H](C)[C@@H](OCc2cn(C34CC5CC(CC(C5)C3)C4)nn2)[C@H](C)[C@@H](O[C@@H]2O[C@H](C)C[C@H](N(C)C)[C@H]2O)[C@@]2(C)CC(C)=C(O2)[C@H](C)[C@@H](OC(=O)C(C)C)[C@]1(C)OC(=O)C(C)C
8

----------
- Test system: Staphylococcus aureus
- PROTOCOL_DESCRIPTION: Antimicrobial activity against methicillin-resistant Staphylococcus aureus N315 IR94 by serial dilution method
- Format: functional
PROPERTY_NAME: MIC (µg/mL)
Just the number in µg/mL, nothing appended.

Solved entries:
CC[C@H]1OC(=O)[C@H](C)[C@@H](OCc2cn(-c3cccnc3)nn2)[C@H](C)[C@@H](O[C@@H]2O[C@H](C)C[C@H](N(C)C)[C@H]2O)[C@@]2(C)CC(C)=C(O2)[C@H](C)[C@@H](OC(=O)C(C)C)[C@]1(C)OC(=O)C(C)C : 16
CC[C@H]1OC(=O)[C@H](C)[C@@H](OCc2cn(-c3cnc4ccccc4c3)nn2)[C@H](C)[C@@H](O[C@@H]2O[C@H](C)C[C@H](N(C)C)[C@H]2O)[C@@]2(C)CC(C)=C(O2)[C@H](C)[C@@H](OC(=O)C(C)C)[C@]1(C)OC(=O)C(C)C : 8
CC[C@H]1OC(=O)[C@H](C)[C@@H](OCc2cn(CC(=O)Nc3ccccn3)nn2)[C@H](C)[C@@H](O[C@@H]2O[C@H](C)C[C@H](N(C)C)[C@H]2O)[C@@]2(C)CC(C)=C(O2)[C@H](C)[C@@H](OC(=O)C(C)C)[C@]1(C)OC(=O)C(C)C : 16
CC[C@H]1OC(=O)[C@H](C)[C@@H](O[C@H]2C[C@@](C)(OC)[C@@H](O)[C@H](C)O2)[C@H](C)[C@@H](O[C@@H]2O[C@H](C)C[C@H](N(C)C)[C@H]2O)[C@@]2(C)CC(C)=C(O2)[C@H](C)[C@@H](OC(=O)C(C)C)[C@]1(C)OC(=O)C(C)C : 16
CC[C@H]1OC(=O)[C@H](C)[C@@H](OCc2cn(-c3cccc4ccccc34)nn2)[C@H](C)[C@@H](O[C@@H]2O[C@H](C)C[C@H](N(C)C)[C@H]2O)[C@@]2(C)CC(C)=C(O2)[C@H](C)[C@@H](OC(=O)C(C)C)[C@]1(C)OC(=O)C(C)C : 16

Need MIC, item CC[C@H]1OC(=O)[C@H](C)[C@@H](OCc2cn(C34CC5CC(CC(C5)C3)C4)nn2)[C@H](C)[C@@H](O[C@@H]2O[C@H](C)C[C@H](N(C)C)[C@H]2O)[C@@]2(C)CC(C)=C(O2)[C@H](C)[C@@H](OC(=O)C(C)C)[C@]1(C)OC(=O)C(C)C
8

Need MIC, item CC[C@H]1OC(=O)[C@H](C)[C@@H](OCc2cn(CSc3ccccc3)nn2)[C@H](C)[C@@H](O[C@@H]2O[C@H](C)C[C@H](N(C)C)[C@H]2O)[C@@]2(C)CC(C)=C(O2)[C@H](C)[C@@H](OC(=O)C(C)C)[C@]1(C)OC(=O)C(C)C
8

Requested field: MIC. Item: CC[C@H]1OC(=O)[C@H](C)[C@@H](OCc2cn(CC(=O)OCc3ccccc3)nn2)[C@H](C)[C@@H](O[C@@H]2O[C@H](C)C[C@H](N(C)C)[C@H]2O)[C@@]2(C)CC(C)=C(O2)[C@H](C)[C@@H](OC(=O)C(C)C)[C@]1(C)OC(=O)C(C)C
16

I would be grateful if you could share the reported MIC for CC[C@H]1OC(=O)[C@H](C)[C@@H](O)[C@H](C)[C@@H](O[C@@H]2O[C@H](C)C[C@H](N(C)C)[C@H]2OC(C)=O)[C@@]2(C)CC(C)=C(O2)[C@H](C)[C@@H](OC(=O)C(C)C)[C@]1(C)OC(=O)C(C)C .
64

----------
- Tested on: Enterococcus faecalis
- PROTOCOL_DESCRIPTION: Antimicrobial activity against vancomycin-resistant Enterococcus faecalis NCTC-12201 by serial dilution method
- Format: functional
Measured MIC values are reported for all entries that follow.
The answer is to be given in µg/mL; state only the numeric part.

Answered examples (2):
CC[C@H]1OC(=O)[C@H](C)[C@@H](OCc2cn(CSc3ccccc3)nn2)[C@H](C)[C@@H](O[C@@H]2O[C@H](C)C[C@H](N(C)C)[C@H]2O)[C@@]2(C)CC(C)=C(O2)[C@H](C)[C@@H](OC(=O)C(C)C)[C@]1(C)OC(=O)C(C)C : 16
CC[C@H]1OC(=O)[C@H](C)[C@@H](OCc2cn(CC(=O)OCc3ccccc3)nn2)[C@H](C)[C@@H](O[C@@H]2O[C@H](C)C[C@H](N(C)C)[C@H]2O)[C@@]2(C)CC(C)=C(O2)[C@H](C)[C@@H](OC(=O)C(C)C)[C@]1(C)OC(=O)C(C)C : 32

Now take the following molecule into account.
What value of measured MIC is listed for CC[C@H]1OC(=O)[C@H](C)[C@@H](OCc2cn(Cc3ccccc3)nn2)[C@H](C)[C@@H](O[C@@H]2O[C@H](C)C[C@H](N(C)C)[C@H]2O)[C@@]2(C)CC(C)=C(O2)[C@H](C)[C@@H](OC(=O)C(C)C)[C@]1(C)OC(=O)C(C)C ?
16

----------
- System: Staphylococcus aureus
- PROTOCOL_DESCRIPTION: Antimicrobial activity against methicillin-resistant Staphylococcus aureus N315 IR94 by serial dilution method
- Assay type: functional
Quick list: MIC per entry.
Hi, when you answer, please include the unit after the number. Thanks!

Example cases with answers are listed next.
C#CCO[C@H]1[C@H](C)[C@@H](O[C@@H]2O[C@H](C)C[C@H](N(C)C)[C@H]2O)[C@@]2(C)CC(C)=C(O2)[C@H](C)[C@@H](OC(=O)C(C)C)[C@](C)(OC(=O)C(C)C)[C@@H](CC)OC(=O)[C@@H]1C : 16 µg/mL
CC[C@H]1OC(=O)[C@H](C)[C@@H](OCc2cn(Cc3ccccc3)nn2)[C@H](C)[C@@H](O[C@@H]2O[C@H](C)C[C@H](N(C)C)[C@H]2O)[C@@]2(C)CC(C)=C(O2)[C@H](C)[C@@H](OC(=O)C(C)C)[C@]1(C)OC(=O)C(C)C : 8 µg/mL

Query (compound): CC[C@H]1OC(=O)[C@H](C)[C@@H](O[C@H]2C[C@@](C)(OC)[C@@H](OC=O)[C@H](C)O2)[C@H](C)[C@@H](O[C@@H]2O[C@H](C)C[C@H](N(C)C)[C@H]2OC(C)=O)[C@@]2(C)CC(C)=C(O2)[C@H](C)[C@@H](OC(=O)C(C)C)[C@]1(C)OC(=O)C(C)C ; field requested: MIC
16 µg/mL

Any idea what its MIC is? The compound is CC[C@H]1OC(=O)[C@H](C)[C@@H](OCc2cn(CCO)nn2)[C@H](C)[C@@H](O[C@@H]2O[C@H](C)C[C@H](N(C)C)[C@H]2O)[C@@]2(C)CC(C)=C(O2)[C@H](C)[C@@H](OC(=O)C(C)C)[C@]1(C)OC(=O)C(C)C
64 µg/mL
